Molecular target: horseradish peroxidase (HRP) tagged delF508-CFTR (Homo sapiens, UniProt P13569, DEL508-508)
Construct: expressed in transfected cells
Experiment: Measurement of delF508-CFTR-HRP surface expression in CFBE41o- cells;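 for DelF508-CFTR-HRP Amax %: percent efficacy relative to reference corrector lumacaftor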
Type: cell-based
Details: delF508-CFTR-HRP surface expression, CFBE41o- cells; read-out: DelF508-CFTR-HRP Amax %
experimental-readout: Emax (%)

Example entries and their recorded answers appear below.
Cc1ccc(C(F)(F)F)cc1-c1nc(NS(=O)(=O)c2ccnc(N)c2)ccc1Cl [Example 49]    333
Cc1cccc(C)c1-c1cc(C(F)(F)F)cc(NS(=O)(=O)c2cccc(N3CC(O)C3)n2)n1 [Example 205]    592
Cc1cccc(C)c1-c1nc(NS(=O)(=O)c2cccc(N3CC(C)(O)C3)n2)ccc1Cl [Example 210]    507
COC(=O)C1(C)CCN(c2cccc(S(=O)(=O)Nc3ccc(C(F)(F)F)c(-c4ccccc4C4CC4)n3)n2)CC1 [Example 236]    602

a = Cc1ccc(C(F)(F)F)cc1-c1nc(NS(=O)(=O)c2cccc(N3CC(O)C3)n2)ccc1Cl [Example 223]
b = Cc1ccccc1-c1nc(NS(=O)(=O)c2cccc(N3CC[C@@H](C(=O)O)C3)n2)ccc1C(F)(F)F [Example 349]
Problem: Of a and b , which shows the smaller Emax value? Your choice should be expressed through its label.
Result: b
(b: 252%, a: 427%)

###

Molecular target: delF508-CFTR (Homo sapiens, UniProt P13569, DEL508-508)
Construct: functional activity of the CFTR channel (Chloride ion transport) in patient derived primary human bronchial epithelial cells
Sequence (P13569 with tags, fused parts or gaps DEL508-508): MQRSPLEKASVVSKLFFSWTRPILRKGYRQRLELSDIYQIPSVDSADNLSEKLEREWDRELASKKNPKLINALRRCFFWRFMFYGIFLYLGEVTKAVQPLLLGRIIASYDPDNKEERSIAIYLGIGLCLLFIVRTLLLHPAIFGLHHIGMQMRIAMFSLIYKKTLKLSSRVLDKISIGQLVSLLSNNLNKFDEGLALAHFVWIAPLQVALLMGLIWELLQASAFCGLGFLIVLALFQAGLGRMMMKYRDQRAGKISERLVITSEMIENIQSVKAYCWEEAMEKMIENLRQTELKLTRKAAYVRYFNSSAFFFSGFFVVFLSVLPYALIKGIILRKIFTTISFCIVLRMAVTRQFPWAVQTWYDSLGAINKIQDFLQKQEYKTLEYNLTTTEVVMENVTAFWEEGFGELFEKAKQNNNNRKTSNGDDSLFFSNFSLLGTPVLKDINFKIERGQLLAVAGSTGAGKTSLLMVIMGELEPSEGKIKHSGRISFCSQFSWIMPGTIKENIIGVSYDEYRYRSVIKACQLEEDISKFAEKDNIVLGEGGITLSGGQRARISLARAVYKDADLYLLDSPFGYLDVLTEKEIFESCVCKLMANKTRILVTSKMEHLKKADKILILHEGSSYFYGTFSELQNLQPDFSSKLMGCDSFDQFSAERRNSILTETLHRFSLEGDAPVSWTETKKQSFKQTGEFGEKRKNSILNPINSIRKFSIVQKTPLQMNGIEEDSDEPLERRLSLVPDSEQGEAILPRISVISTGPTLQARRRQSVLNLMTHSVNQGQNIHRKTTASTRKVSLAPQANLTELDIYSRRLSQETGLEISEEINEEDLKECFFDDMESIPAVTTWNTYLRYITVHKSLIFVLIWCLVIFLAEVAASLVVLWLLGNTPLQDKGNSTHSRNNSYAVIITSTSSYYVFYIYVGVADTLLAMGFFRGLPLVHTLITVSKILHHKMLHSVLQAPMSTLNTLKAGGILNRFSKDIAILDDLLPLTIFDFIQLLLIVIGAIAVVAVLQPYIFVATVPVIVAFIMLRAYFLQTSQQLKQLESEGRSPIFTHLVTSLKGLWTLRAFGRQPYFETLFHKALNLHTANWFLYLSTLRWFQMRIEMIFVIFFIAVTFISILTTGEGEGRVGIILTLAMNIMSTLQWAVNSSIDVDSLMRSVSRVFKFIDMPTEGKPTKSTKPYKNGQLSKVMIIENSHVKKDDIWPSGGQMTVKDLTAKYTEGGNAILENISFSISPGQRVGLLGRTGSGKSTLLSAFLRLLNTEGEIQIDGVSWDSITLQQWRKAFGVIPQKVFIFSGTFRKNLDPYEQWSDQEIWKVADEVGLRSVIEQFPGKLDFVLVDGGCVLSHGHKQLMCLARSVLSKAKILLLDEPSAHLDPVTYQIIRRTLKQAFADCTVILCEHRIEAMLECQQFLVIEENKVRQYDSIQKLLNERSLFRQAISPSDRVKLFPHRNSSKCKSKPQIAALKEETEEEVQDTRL
Assay: Measurement of delF508-CFTR functional activity in primary human bronchial epithelial cells (HBECs) using Multi-Transepithelial Clamp Circuit (MTECC-24) assay
Settings: primary CF HBECs; test compound added 24h before assay, in the presence of potentiator; mean of at least two replicates; read-out: MTECC24 CFHBEC- EC50
Structures can show the parent of a compound that is named as a salt.
experimental-readout: EC50 (nM)

Cc1cccc(C)c1-c1nc(NS(=O)(=O)c2cccc(O[C@@H]3CO[C@H](CO)C3)n2)ccc1Cl    34.1
Cc1ccc(F)cc1-c1nc(NS(=O)(=O)c2ccnc(N3CCOC[C@H]3C)c2)ccc1C(F)(F)F    18.3
CC(C)c1ccccc1-c1nc(NS(=O)(=O)c2cccc(N3CCC[C@@H](C(=O)O)C3)n2)ccc1C(F)(F)F    0.682
Cc1ccccc1-c1nc(NS(=O)(=O)c2cccc(N3CCNC(=O)C3)n2)ccc1C(F)(F)F    13.2
Cc1ccccc1-c1nc(NS(=O)(=O)c2cccc(N3CCN(CCO)CC3)n2)ccc1C(F)(F)F [Example 182, Hydrochloride]    87.8

P = CCCC1(C(=O)O)CCN(c2cccc(S(=O)(=O)Nc3ccc(C(F)(F)F)c(-c4ccccc4CC)n3)n2)CC1
Q = Cc1ccccc1-c1nc(NS(=O)(=O)c2cccc(N[C@H]3CCCNC3)n2)ccc1C(F)(F)F [Example 105, Hydrochloride]
Problem: Of P and Q , which shows the smaller EC50 value? Your choice should be expressed through its label.
Result: P
(P: 107 nM, Q: 222 nM)

###

Target: horseradish peroxidase (HRP) tagged delF508-CFTR (Homo sapiens, UniProt P13569, DEL508-508)
Construct: expressed in transfected cells
Assay: Measurement of delF508-CFTR-HRP surface expression in CFBE41o- cells
Type: cell-based
Details: delF508-CFTR-HRP surface expression, CFBE41o- cells; read-out: DelF508-CFTR-HRP EC50
experimental-readout: EC50 (µM)

Cc1cccc(C)c1-c1nc(NS(=O)(=O)c2cccc(O[C@H]3CC[C@H](C(=O)O)CC3)n2)ccc1Cl    2.92
Cc1cccc(C)c1-c1nc(NS(=O)(=O)c2cccnc2N)ccc1Cl    2.58

1 = CC1(C(=O)O)CCN(c2cccc(S(=O)(=O)Nc3ccc(Cl)c(-c4ccccc4Cl)n3)n2)CC1
2 = Cc1ccc(F)cc1-c1nc(NS(=O)(=O)c2ccnc(N3CC(O)C3)c2)ccc1C(F)(F)F
Problem: Of 1 and 2 , which shows the smaller EC50 value? Your choice should be expressed through its label.
Result: 2
(2: 2.64 µM, 1: 4.51 µM)
